tested on: HL-60; test: Cytotoxicity against human HL60 cells assessed as reduction in cell viability after 48 hrs by WST-8 assay; assay type: functional, cell-based; details: HL-60, 48 h
Readout kind: pEC50
# pEC50 is unitless: minus log10 of the molar concentration; print number only

Name the value of pEC50 reported for `Cc1ccc(C[C@H]2COC[C@@H]2Cc2ccc(Cl)c(Cl)c2)cc1` when tested on HL-60.
4.68

Name the value of pEC50 reported for `O=C1OC[C@H](Cc2ccccc2)[C@H]1Cc1ccc(F)c(F)c1` when tested on HL-60.
4.30

Name the value of pEC50 reported for `Cc1cccc(C[C@H]2C(=O)OC[C@@H]2Cc2ccccc2)c1` when tested on HL-60.
4.28

Name the value of pEC50 reported for `Cc1ccc(C[C@H]2COC(=O)[C@@H]2Cc2ccc(Cl)c(Cl)c2)cc1C` when tested on HL-60.
4.80

Name the value of pEC50 reported for `CCCCOc1ccccc1C[C@H]1COC(=O)[C@@H]1Cc1ccc(Cl)c(Cl)c1` when tested on HL-60.
5.00

Name the value of pEC50 reported for `CCCCc1ccc(C[C@H]2COC(=O)[C@@H]2Cc2ccc(Cl)c(Cl)c2)cc1` when tested on HL-60.
5.03

Name the value of pEC50 reported for `O=C1OC[C@H](Cc2ccccc2)[C@H]1Cc1cccc(OC(F)(F)F)c1` when tested on HL-60.
4.47

Name the value of pEC50 reported for `CCCCOc1ccccc1C[C@H]1C(=O)OC[C@@H]1Cc1ccccc1` when tested on HL-60.
4.70

Name the value of pEC50 reported for `Clc1ccc(C[C@H]2COC[C@@H]2Cc2ccc3c(c2)OCO3)cc1Cl` when tested on HL-60.
4.66

Name the value of pEC50 reported for `O=C1OC[C@H](Cc2ccccc2)[C@H]1Cc1ccc(F)cc1` when tested on HL-60.
4.24

Name the value of pEC50 reported for `O=C1OC[C@H](Cc2ccccc2)[C@H]1Cc1ccc2c(c1)OCO2` when tested on HL-60.
4.24

Name the value of pEC50 reported for `COc1ccc(C[C@H]2COC(=O)[C@@H]2Cc2ccc(Cl)c(Cl)c2)cc1O` when tested on HL-60.
4.49

Name the value of pEC50 reported for `O=C1OC[C@H](Cc2ccccc2)[C@H]1Cc1ccccc1OC(F)(F)F` when tested on HL-60.
4.41

Name the value of pEC50 reported for `COc1cc(C[C@H]2COC[C@@H]2Cc2ccc(Cl)c(Cl)c2)ccc1O` when tested on HL-60.
4.68

Name the value of pEC50 reported for `Oc1ccccc1C[C@H]1COC[C@@H]1Cc1ccc(Cl)c(Cl)c1` when tested on HL-60.
4.47

Name the value of pEC50 reported for `Fc1cccc(C[C@H]2COC[C@@H]2Cc2ccc(Cl)c(Cl)c2)c1` when tested on HL-60.
4.70

Name the value of pEC50 reported for `C[C@H](Cc1ccccc1)[C@H](C)Cc1ccc(Cl)c(Cl)c1` when tested on HL-60.
4.72

Name the value of pEC50 reported for COc1cc(C[C@@H](C)[C@H](C)Cc2ccc(O)c(OC)c2)ccc1O [(-)-DIHYDROGUAIARETICACID] when tested on HL-60.
4.59

###

system: HL-60; assay: Cytotoxicity against human HL60 cells assessed as reduction in cell viability after 48 hrs by WST-8 assay; type: functional, cell-based; settings: HL-60, 48 h
So I've got a bunch of compounds here, and I need their pEC50 values.
# pEC50 is unitless: minus log10 of the molar concentration; print number only

Query pEC50 for `Clc1ccc(C[C@H]2COC[C@@H]2Cc2ccc(Cl)c(Cl)c2)cc1Cl`
4.80

Query pEC50 for `Clc1ccc(C[C@H]2COC[C@@H]2Cc2ccccc2)cc1Cl`
4.72

Query pEC50 for `Oc1cccc(C[C@H]2COC[C@@H]2Cc2ccc(Cl)c(Cl)c2)c1`
4.51

Query pEC50 for `CCc1ccc(C[C@H]2COC[C@@H]2Cc2ccc(Cl)c(Cl)c2)cc1`
4.59

Query pEC50 for `COc1ccccc1C[C@H]1COC[C@@H]1Cc1ccc(Cl)c(Cl)c1`
4.26

Query pEC50 for `O=C1OC[C@H](Cc2ccccc2F)[C@H]1Cc1ccc(Cl)c(Cl)c1`
4.55

Query pEC50 for `Fc1ccc(C[C@H]2COC[C@@H]2Cc2ccc(Cl)c(Cl)c2)cc1`
4.37
